Target: full-length human PRMT6 (Flag- and His-tagged) (Homo sapiens)
Sequence (Q96LA8 with tags, fused parts or gaps): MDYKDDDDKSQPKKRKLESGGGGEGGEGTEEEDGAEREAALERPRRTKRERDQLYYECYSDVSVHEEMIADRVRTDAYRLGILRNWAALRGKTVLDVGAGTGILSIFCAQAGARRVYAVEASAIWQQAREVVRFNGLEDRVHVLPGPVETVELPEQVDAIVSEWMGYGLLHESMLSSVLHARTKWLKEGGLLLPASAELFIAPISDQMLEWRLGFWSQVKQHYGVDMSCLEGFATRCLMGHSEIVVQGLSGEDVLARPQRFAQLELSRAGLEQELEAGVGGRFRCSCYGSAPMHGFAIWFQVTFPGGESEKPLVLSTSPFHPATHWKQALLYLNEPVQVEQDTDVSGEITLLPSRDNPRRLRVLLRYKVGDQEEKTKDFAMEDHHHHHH
Experiment: PRMT6 Biochemical Assay (3H-SAM Flashplate, peptide substrate)
Settings: read-out: Biochemical IC50 PRMT6
pIC50: −log10 of the molar value.
ENDPOINT LABEL: pIC50

                                   compound        result
0  CNCCN(C)Cc1c[nH]nc1C1CCC2(CC1)OCC(C(C)C)CO2 (stereo not shown)        > 7.00
1  CNCCN(C)Cc1c[nH]nc1[C@H]1CC[C@]2(CCN(Cc3ccc(OCCOC)cc3)C2=O)CC1        > 7.00
2  CN(CCN)Cc1c[nH]nc1[C@H]1CC[C@@]2(CC1)CC(C)(C)CO2        > 7.00
3  CNCCN(C)Cc1c[nH]nc1C1CCC(OCCOC)CC1 (stereo not shown)        > 7.00
4   CNCCN(C)Cc1c[nH]nc1C1CCC(CCOC)(CCOC)CC1        > 7.00
5  CNCCN(C)Cc1c[nH]nc1[C@H]1CCC(C)(C)[C@@H](C(=O)NCCCOC)C1  6.00 to 7.00
6  CCOC1CC2(CCC(c3n[nH]cc3CN(C)CCNC)CC2)CC1OCC (stereo not shown)        > 7.00
7  CNCCN(C)Cc1c[nH]nc1C1CCC(Oc2ccccc2)CC1 (stereo not shown)        > 7.00
8  CNCCN(C)Cc1c[nH]nc1C1CCC(C)(C)[C@H](C(=O)NCCCOC)C1 (stereo partly shown)  6.00 to 7.00
9  CNCCN(C)Cc1c[nH]nc1C1CCC2(CCCCO2)CC1 (stereo not shown)        > 7.00

###

Molecular target: full-length human PRMT1 isoform 1 (GST-tagged) (Homo sapiens, UniProt Q99873)
Sequence (Q99873 with tags, fused parts or gaps): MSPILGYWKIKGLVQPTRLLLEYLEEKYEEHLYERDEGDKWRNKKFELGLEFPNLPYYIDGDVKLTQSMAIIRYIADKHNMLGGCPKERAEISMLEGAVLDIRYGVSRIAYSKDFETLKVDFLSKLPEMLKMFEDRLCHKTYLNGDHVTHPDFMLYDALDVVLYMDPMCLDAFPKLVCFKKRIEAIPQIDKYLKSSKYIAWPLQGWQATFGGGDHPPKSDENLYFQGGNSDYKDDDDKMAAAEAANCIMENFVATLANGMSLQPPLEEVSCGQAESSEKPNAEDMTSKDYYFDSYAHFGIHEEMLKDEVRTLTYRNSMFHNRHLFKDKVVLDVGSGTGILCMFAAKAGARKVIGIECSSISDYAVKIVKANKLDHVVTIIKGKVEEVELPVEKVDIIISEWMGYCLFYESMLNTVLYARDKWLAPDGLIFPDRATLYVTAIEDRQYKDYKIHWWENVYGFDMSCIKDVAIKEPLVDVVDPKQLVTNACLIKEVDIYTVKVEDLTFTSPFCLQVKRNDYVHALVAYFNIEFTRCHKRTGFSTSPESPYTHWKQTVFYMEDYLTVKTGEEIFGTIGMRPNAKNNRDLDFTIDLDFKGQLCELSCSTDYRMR
Assay: PRMT1 Biochemical Assay (3H-SAM Flashplate, peptide substrate)
Details: single experiment or average of multiple experiments
pIC50: −log10 of the molar value. Where a name gives a salt, the structure may show the parent alone.
Recorded pIC50 values for a group of compounds are listed next.
ENDPOINT LABEL: pIC50

In [3]: df
Out[3]:
                                   compound  endpoint_label  sign_qualifier  number
0  CNCCN(C)Cc1c[nH]nc1[C@H]1CC[C@]2(CCCO2)OC1           pIC50               ≤    5.00
1  CNCCN(C)Cc1c[nH]nc1[C@H]1CC[C@@H](O)C2(CCCCC2)C1 (single isomer, unassigned)           pIC50               =    7.87
2  CNCCN(C)Cc1c[nH]nc1C1CCC(OCCOC)CC1 (stereo not shown)           pIC50               =    7.58
3  CNCCN(C)Cc1cnn(C)c1[C@H]1CC[C@@]2(CC1)CC(C)(C)CO2 [Compound 245, trifluoroacetic acid salt]           pIC50               =    7.73
4  CNCCN(C)Cc1c[nH]nc1[C@H]1CC[C@@H](N(CC2CCOCC2)C(=O)CC(C)C)CC1           pIC50               =    7.67
5  CN(CCN)Cc1c[nH]nc1[C@H]1CC[C@]2(CC1)CC(C)(C)CO2           pIC50               =    8.16
6         CNCCN(C)Cc1c[nH]nc1C1CCC2(CC1)CC2           pIC50               =    7.67
7  CNCCN(C)Cc1c[nH]nc1[C@H]1CC[C@@H](N(CCC(C)C)C(=O)CCOC)CC1           pIC50               =    7.59
8  CNCCN(C)Cc1c[nH]nc1C1CCC(C)(C)[C@H](OCC2CCOCC2)C1 (stereo partly shown)           pIC50               =    7.94
9  CNCCN(C)Cc1c[nH]nc1[C@H]1CC[C@H](N(CCOC)C(=O)CCC(C)C)CC1           pIC50               =    7.76
